pIC50: −log10 of the molar value.
Record: pIC50 reported on KAT6A (Homo sapiens, UniProt Q92794).
Sequence (Q92794 whole entry): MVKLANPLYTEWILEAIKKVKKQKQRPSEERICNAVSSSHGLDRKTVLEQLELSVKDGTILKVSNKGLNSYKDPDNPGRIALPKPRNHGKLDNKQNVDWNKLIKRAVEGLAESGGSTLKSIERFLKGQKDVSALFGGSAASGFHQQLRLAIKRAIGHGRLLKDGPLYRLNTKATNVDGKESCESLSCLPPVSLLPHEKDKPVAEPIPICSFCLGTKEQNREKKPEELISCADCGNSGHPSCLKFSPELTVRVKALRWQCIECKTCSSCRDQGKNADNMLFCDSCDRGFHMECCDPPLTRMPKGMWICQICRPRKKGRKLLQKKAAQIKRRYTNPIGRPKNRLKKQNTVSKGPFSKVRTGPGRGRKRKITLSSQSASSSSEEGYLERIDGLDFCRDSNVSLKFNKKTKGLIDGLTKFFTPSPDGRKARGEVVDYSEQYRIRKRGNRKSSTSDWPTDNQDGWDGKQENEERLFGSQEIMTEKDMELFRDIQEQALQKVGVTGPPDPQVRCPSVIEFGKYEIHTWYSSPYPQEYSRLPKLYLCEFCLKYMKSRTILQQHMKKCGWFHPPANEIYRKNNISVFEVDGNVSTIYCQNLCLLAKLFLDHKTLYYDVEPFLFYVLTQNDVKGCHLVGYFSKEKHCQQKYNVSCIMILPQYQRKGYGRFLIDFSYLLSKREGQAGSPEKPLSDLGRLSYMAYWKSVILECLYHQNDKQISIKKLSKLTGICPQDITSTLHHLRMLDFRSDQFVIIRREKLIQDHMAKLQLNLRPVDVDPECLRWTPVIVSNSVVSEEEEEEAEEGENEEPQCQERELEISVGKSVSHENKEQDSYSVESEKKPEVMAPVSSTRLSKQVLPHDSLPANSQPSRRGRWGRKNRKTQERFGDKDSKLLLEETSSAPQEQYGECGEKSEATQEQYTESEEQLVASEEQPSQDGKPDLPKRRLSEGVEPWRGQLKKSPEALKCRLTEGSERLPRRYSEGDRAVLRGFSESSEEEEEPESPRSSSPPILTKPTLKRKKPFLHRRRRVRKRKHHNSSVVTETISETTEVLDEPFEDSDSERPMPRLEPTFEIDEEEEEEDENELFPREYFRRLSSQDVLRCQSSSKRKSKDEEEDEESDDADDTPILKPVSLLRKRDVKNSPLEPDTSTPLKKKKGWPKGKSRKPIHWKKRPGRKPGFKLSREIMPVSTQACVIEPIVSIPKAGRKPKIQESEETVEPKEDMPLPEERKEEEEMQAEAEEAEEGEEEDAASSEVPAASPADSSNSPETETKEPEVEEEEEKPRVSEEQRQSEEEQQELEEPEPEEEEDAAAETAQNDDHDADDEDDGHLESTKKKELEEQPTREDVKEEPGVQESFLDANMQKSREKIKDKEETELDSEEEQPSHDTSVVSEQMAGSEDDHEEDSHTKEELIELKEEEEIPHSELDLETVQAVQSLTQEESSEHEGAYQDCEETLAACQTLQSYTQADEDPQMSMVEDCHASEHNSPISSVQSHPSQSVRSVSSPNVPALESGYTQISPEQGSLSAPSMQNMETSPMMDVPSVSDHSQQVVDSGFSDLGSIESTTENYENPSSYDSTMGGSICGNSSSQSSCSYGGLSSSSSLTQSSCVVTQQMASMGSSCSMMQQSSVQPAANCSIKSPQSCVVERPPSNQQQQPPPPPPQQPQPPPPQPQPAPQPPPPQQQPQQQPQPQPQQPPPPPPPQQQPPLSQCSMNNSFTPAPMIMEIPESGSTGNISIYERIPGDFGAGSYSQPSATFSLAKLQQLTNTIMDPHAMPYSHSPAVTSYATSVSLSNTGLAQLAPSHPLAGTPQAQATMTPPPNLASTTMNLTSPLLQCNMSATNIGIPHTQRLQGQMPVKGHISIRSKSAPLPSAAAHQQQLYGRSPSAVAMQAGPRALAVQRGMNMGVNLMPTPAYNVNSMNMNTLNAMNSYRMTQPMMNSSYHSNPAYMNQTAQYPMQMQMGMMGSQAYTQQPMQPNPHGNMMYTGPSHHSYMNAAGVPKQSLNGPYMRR
MEASURED_PARAMETER: pIC50

# MOLECULE, MEASURED_PARAMETER, NUMERIC_VALUE
data = [
    ("COc1nc(Cn2cccn2)cc2onc(NS(=O)(=O)c3ccc4ncsc4c3)c12", "pIC50", 8.06),
    ("COc1ccc(S(=O)(=O)Nc2noc3cc(Cn4cccn4)nc(OC)c23)c2occc12", "pIC50", 8.05),
    ("COc1ccc2ccoc2c1S(=O)(=O)Nc1noc2cc(Cn3cc(C)cn3)nc(OC)c12", "pIC50", 8.39),
    ("[2H]C1Oc2cc(S(=O)(=O)Nc3noc4cc(Cn5cccn5)nc(OC)c34)c(OC)cc2C1[2H] (centres unmarked)", "pIC50", 8.73),
    ("COc1ccc2c(c1S(=O)(=O)Nc1noc3cc(Cn4cccn4)nc(OC)c13)OCC2", "pIC50", 9.04),
    ("COc1cc2c(cc1S(=O)(=O)Nc1noc3cc(Cn4cccn4)nc(OC)c13)OC(C)(C)C2", "pIC50", 8.66),
    ("COc1cc2c(cc1S(=O)(=O)Nc1noc3cc(Cn4cccn4)nc(OC)c13)CCCO2", "pIC50", 8.98),
    ("COc1ccc2c(c1S(=O)(=O)Nc1noc3cc(Cn4cccn4)nc(OC)c13)CCCC2", "pIC50", 8.75),
]

----------
Parameter: half-life. Scope: all listed entries.
experiment: In-vivo pharmacokinetic study in beagle dogs; design: species or system male beagle dogs; conditions: male, beagle, dog, plasma, po, 1 mg/kg, intragastric administration

# COMPOUND, half-life
records = [
    ("COc1cc2c(cc1S(=O)(=O)Nc1noc3cc(Cn4cccn4)nc(OC)c13)OCC2 [Example 59]", "≤ 15 h"),
    ("COc1ccc2c(c1S(=O)(=O)Nc1noc3cc(Cn4cccn4)nc(OC)c13)OCC2 [Example 9]", "≤ 15 h"),
    ("COc1ccc2ccoc2c1S(=O)(=O)Nc1noc2cc(Cn3cccn3)nc(OC)c12 [Example 10]", "≤ 15 h"),
]

----------
experiment: Assay for plasma protein binding rate (equilibrium dialysis), human plasma; format: in vitro ADME; conditions: dialysis 6 h at 37 °C, read-out: Human (Fu%)
Parameter: fraction unbound at 6 h, 1 µM. Scope: all listed entries.

# INPUT_SMILES, fraction unbound at 6 h, 1 µM
measured = [
    ("COc1ccc2ccoc2c1S(=O)(=O)Nc1noc2cc(Cn3cccn3)nc(OC)c12", 0.0073),
    ("COc1cc2c(cc1S(=O)(=O)Nc1noc3cc(Cn4cccn4)nc(OC)c13)OCO2", 0.0264),
    ("COc1cc2c(cc1S(=O)(=O)Nc1noc3cc(Cn4cccn4)nc(OC)c13)CCO2", 0.0175),
    ("COc1ccc2c(c1S(=O)(=O)Nc1noc3cc(Cn4cccn4)nc(OC)c13)OCC2", 0.0069),
    ("COc1cc2cccnc2cc1S(=O)(=O)Nc1noc2cc(Cn3cccn3)nc(OC)c12", 0.0091),
    ("COc1cc2c(cc1S(=O)(=O)Nc1noc3cc(Cn4cccn4)nc(OC)c13)OCC2", 0.0248),
    ("COc1cc2c(cc1S(=O)(=O)Nc1noc3cc(Cn4cccn4)nc(OC)c13)CCCO2", 0.0118),
    ("COc1cc2c(cc1S(=O)(=O)Nc1noc3cc(Cn4cccn4)nc(OC)c13)CCCC2", 0.0099),
]
